Tgt: hGLP-1R (Homo sapiens, UniProt P43220)
Sequence (P43220 24-463): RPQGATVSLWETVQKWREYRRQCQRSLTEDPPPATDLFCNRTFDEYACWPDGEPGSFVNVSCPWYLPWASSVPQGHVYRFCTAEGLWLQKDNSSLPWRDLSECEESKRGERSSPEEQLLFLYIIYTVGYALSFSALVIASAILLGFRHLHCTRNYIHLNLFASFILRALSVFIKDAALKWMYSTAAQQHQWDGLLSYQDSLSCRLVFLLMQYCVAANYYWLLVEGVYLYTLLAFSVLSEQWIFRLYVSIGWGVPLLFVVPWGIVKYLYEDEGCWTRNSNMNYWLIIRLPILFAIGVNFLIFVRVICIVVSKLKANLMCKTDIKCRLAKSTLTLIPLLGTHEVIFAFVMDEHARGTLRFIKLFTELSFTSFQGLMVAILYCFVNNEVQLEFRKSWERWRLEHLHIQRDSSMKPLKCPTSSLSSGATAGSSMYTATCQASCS
Test: cell-based or functional assay
Starred links: 1 amine or outer side, 2 acyl side, 3 side chain; linkers in the order of their positions; H or OH if unused. Non-standard residues stand in square brackets, D forms with d. Groups on a side chain read outwards from the residue. No end group written: not given here. *: point of attachment. C20 diacid = O=C(O)CCCCCCCCCCCCCCCCCCC(=O)*; γGlu = O=C(O)[C@H](CCC(=O)[*:2])N[*:1]; αMeL = CC(C)C[C@](C)(N)C(=O)O; AEEA = NCCOCCOCC(=O)O; Aib = CC(C)(N)C(=O)O
Categorized via cAMP Rel EC50 (in the presence of 1% HSA): lower segment (below 90 nM), middle segment (90 nM to below 400 nM), upper segment (400 nM or more)

Worked examples, 5 binders total:
YXQGTXTSDXXIXLDXKAQXXFIEXLTEGGPSSGEPPPEGTEE (acylated Lys (γGlu)2-C18 diacid; non-natural residues; C-terminal amide; synthetic construct; SITE 2: note = 2-Aminoisobutyric Acid; SITE 6: note = alpha-methyl-2-fluoro-L-phenylalanine; SITE 10: note = 3-(4-Pyridyl)-L-alanine; SITE 11: note = alpha-methyl-L-serine; SITE 13: note = alpha-methyl-leucine; SITE 16: note = L-ornithine; SITE 17: note = Lysine is chemically mo) [Example 597] : lower segment
YXQGTFTSDXXQXLDXKAQXQFIEXLIEXGPSSGEPPPSGGGE (non-natural residues, lysine acylation, C-terminal amide; synthetic construct; SITE 2: note = 2-Aminoisobutyric Acid; SITE 10: note = 3-(4-Pyridyl)-L-alanine; SITE 11: note = alpha-methyl-L-serine; SITE 13: note = alpha-methyl-leucine; SITE 16: note = L-ornithine; SITE 17: note = Lysine is chemically modified through conjugation of the epsilon-amino group) [Example 1184] : middle segment
YXQGTFTSDFSKXLDKKAQXAFIEYLLAGGPSSGEPPPSEGX (synthetic construct; SITE 2: note = 2-Aminoisobutyric Acid; SITE 13: note = alpha-methyl-leucine; SITE 17: note = Lysine is chemically modified through conjugation of the epsilon-amino group of the Lysine side chain with (2-[2-(2-Amino-ethoxy)-ethoxy]-acetyl)-(gamma-Glu)-CO-(CH2) 18-CO2H; SITE 20: n) [Example 32] : upper segment
YXQGTFTSDXXQXLDXKAQXQFIEXLIAXGPSSGAPPPSGGGE (not fully specified; non-natural residues; γGlu-C18 diacid on Lys; C-terminal amide; synthetic construct; SITE 2: note = 2-Aminoisobutyric Acid; SITE 10: note = 3-(4-Pyridyl)-L-alanine; SITE 11: note = alpha-methyl-L-serine; SITE 13: note = alpha-methyl-leucine; SITE 16: note = L-ornithine; SITE 17: note = Lysine is chemically modified through conjugation of the epsilon-amino group) [Example 1185] : lower segment
YXQGTFTSDFSXXLDKKAQXAFIEYLLEGGPSSGAPPPGGX (C-terminal amide; lysine acylated with AEEA-γ-Glu-C18 diacid; synthetic construct; SITE 2: note = 2-Aminoisobutyric Acid; SITE 12: note = L-ornithine; SITE 13: note = alpha-methyl-leucine; SITE 17: note = Lysine is chemically modified through conjugation of the epsilon-amino group of the Lysine side chain with (2-[2-(2-Amino-ethoxy)-ethoxy]-acetyl)-(gamma-Glu)) [Example 261] : middle segment

Each binder maps to one class by cAMP Rel EC50 (in the presence of 1% HSA). Which class for Y[Aib]QGTFTSDYSI[αMeL]LDKK([AEEA-γGlu-C20 diacid])AQRAFIEYLLEGGPSSGEPPPSEG-NH2 [Example 289] ?
middle segment

For the record YXQGTXTSDXSIXLDXKAQXEFIEXLLEGGPSSGEPPPSGS (non-natural residues; lipidated Lys; C-terminal amide; synthetic construct; SITE 2: note = 2-Aminoisobutyric Acid; SITE 6: note = alpha-methyl-2-fluoro-L-phenylalanine; SITE 10: note = 3-(4-Pyridyl)-L-alanine; SITE 13: note = alpha-methyl-leucine; SITE 16: note = L-ornithine; SITE 17: note = Lysine is chemically modified through conjugation of the epsil) [Example 645] , report the class its cAMP Rel EC50 (in the presence of 1% HSA) corresponds to.
lower segment

Hi there! Could you help me figure out the category for YXQGTXTSDXXIXLDXKAQXEFIEXLIEGGPPSXEPPPSGGGE (non-natural residues; acylated Lys; C-terminal amide; synthetic construct; SITE 2: note = 2-Aminoisobutyric Acid; SITE 6: note = alpha-methyl-2-fluoro-L-phenylalanine; SITE 10: note = 3-(4-Pyridyl)-L-alanine; SITE 11: note = alpha-methyl-L-serine; SITE 13: note = alpha-methyl-leucine; SITE 16: note = L-ornithine; SITE 17: note = Lysine is chemically mo) [Example 1201] please?
middle segment

Returns: class label. Input: YXQGTFTSDFSXXLDKKAQXAFIEWLLEGGXSSGAPPPSGT (non-natural residues, C-terminal amide, acylated Lys with fatty diacid; synthetic construct; SITE 2: note = 2-Aminoisobutyric Acid; SITE 12: note = L-ornithine; SITE 13: note = alpha-methyl-leucine; SITE 17: note = Lysine is chemically modified through conjugation of the epsilon-amino group of the Lysine side chain with (2-[2-(2-Amino-ethoxy)-ethoxy]-acetyl)-(gamma-Glu)) [Example 268]
upper segment

Into which category would you place YXQGTFTSDFSXXLDKKAQXAFIEYLLEXGPSSGAPPPSGT (Aib, Orn, alpha-methyl-Leu, lipidated Lys, C-terminal amide; synthetic construct; SITE 2: note = 2-Aminoisobutyric Acid; SITE 12: note = L-ornithine; SITE 13: note = alpha-methyl-leucine; SITE 17: note = Lysine is chemically modified through conjugation of the epsilon-amino group of the Lysine side chain with (gamma-Glu)-(2-[2-(2-Amino-ethoxy)-ethoxy]-acetyl)) [Example 276] ?
middle segment

Input YXQGTFTSDFSKXLDKKAQXAFIEYLLEGGPSSGAPPPGEG (synthetic construct; SITE 2: note = 2-Aminoisobutyric Acid; SITE 13: note = alpha-methyl-leucine; SITE 17: note = Lysine is chemically modified through conjugation of the epsilon-amino group of the Lysine side chain with (2-[2-(2-Amino-ethoxy)-ethoxy]-acetyl)2-(gamma-Glu)-CO-(CH2 )18-CO2H; SITE 20:) [Example 17] ; output its category
upper segment

Band assignment needed for YXQGTFTSDFSXXLDKKAQXAFIEWLLEGGPSSGAPPPTGS (acylated Lys, C-terminal amide, non-natural residues; synthetic construct; SITE 2: note = 2-Aminoisobutyric Acid; SITE 12: note = L-ornithine; SITE 13: note = alpha-methyl-leucine; SITE 17: note = Lysine is chemically modified through conjugation of the epsilon-amino group of the Lysine side chain with (2-[2-(2-Amino-ethoxy)-ethoxy]-acetyl)-(gamma-Glu)) [Example 250] please.
middle segment

Every entry's value here was drawn from patent US20240270821A1.
